# Test system: 2-O sulfatase
# experimentSummary: effect of ionic strength, metal ions, EDTA, buffers and cysteine-reactive agents on 2-O sulfatase activity
# Assay type: biochemical, F. heparinum
# testConditions: EDTA up to 1 mM; CaCl2, MgCl2, MnCl2 up to 10 mM; DTNB, DTT; 50 mM phosphate buffer pH 6.5
readoutName: effect of additive on enzyme activity

Guide cases for effect of additive on enzyme activity, answers given:
O[C@@H](CS)[C@@H](O)CS
not inhibited
O=C(O)c1cc(SSc2ccc([N+](=O)[O-])c(C(=O)O)c2)ccc1[N+](=O)[O-]
not inhibited
[Ca+2].[Cl-].[Cl-]
no substantive effect
[Cl-].[Cl-].[Mg+2]
no substantive effect

Request the reported effect of additive on enzyme activity associated with `[Cl][Mn][Cl]` no substantive effect

Hello, the source for this data is patent US7429474B2, in case you need it.
